Value source: patent US20200024330A1

molecular target: HIV-1 JR-CSF Env N262A (HIV-1 JR-CSF) (UniProt P20871); test: cell-based or functional assay

{"columns": ["binder", "measurementUnit", "Fold IC50 increase relative to wild-type"],
 "data": [
  ["PGT-131 (antibody, V domains shown) VH: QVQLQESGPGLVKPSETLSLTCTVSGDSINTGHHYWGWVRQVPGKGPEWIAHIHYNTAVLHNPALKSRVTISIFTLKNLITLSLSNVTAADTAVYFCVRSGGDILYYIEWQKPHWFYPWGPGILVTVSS VL: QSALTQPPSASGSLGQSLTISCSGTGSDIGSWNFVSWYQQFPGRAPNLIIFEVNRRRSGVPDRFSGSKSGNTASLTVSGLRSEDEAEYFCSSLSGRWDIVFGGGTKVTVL", "fold", 0.4],
  ["PGT-125 (antibody, V domains shown) VH: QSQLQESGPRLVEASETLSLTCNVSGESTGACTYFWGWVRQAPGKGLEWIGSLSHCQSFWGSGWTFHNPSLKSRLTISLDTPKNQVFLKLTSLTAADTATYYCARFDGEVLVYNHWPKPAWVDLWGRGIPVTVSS VL: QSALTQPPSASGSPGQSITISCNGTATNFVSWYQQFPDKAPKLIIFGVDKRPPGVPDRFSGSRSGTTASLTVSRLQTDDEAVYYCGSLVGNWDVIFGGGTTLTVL", "fold", 0.9],
  ["PGT-123 (antibody, V domains shown) VH: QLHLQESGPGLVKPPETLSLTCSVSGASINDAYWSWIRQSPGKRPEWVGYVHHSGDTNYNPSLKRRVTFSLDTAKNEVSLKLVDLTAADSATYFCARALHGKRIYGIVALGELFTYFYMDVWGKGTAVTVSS VL: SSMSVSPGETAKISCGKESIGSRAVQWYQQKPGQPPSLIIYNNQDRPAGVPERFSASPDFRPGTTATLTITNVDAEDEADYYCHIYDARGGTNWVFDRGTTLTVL", "fold", 0.5]
]}
